# target: Serine/threonine-protein kinase B-raf [V600E] (Homo sapiens, UniProt P15056, V600E)
# Sequence (P15056 2-766 V600E limits assumed): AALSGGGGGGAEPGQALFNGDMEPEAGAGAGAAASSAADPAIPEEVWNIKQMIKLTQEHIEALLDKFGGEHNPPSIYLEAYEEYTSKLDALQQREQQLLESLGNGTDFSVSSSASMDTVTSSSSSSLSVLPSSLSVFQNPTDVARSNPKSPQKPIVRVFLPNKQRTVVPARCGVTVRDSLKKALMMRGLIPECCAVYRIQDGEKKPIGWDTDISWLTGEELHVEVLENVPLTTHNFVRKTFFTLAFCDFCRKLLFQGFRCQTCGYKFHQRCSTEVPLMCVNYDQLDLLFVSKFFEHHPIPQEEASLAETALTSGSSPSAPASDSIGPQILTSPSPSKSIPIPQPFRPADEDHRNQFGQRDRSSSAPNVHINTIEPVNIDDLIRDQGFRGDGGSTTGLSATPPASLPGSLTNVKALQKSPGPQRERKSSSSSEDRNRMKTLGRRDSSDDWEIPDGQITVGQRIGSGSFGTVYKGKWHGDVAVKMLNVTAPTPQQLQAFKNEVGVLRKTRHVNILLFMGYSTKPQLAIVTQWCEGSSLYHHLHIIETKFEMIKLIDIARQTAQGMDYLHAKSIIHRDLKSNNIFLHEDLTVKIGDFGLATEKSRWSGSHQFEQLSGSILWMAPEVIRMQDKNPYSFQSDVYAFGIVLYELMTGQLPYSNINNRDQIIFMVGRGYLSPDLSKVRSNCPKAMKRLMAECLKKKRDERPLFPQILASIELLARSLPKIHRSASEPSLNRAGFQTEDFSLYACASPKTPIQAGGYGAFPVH
# protocol_details: BRAF V600E and V600K Enzyme Assay
# Description: A competitive displacement assay was configured for B-Raf that monitors the amount of a fluorescently-tagged tracer bound to B-Raf via TR-FRET from an anti-tag Eu-labeled antibody also bound to B-Raf.
readout_label: IC50 (µM)

In [3]: df
Out[3]:
                                test_smiles   value
0  Cc1c(Nc2c(F)ccc(NS(=O)(=O)CC(C)C)c2Cl)ccc2ncn(C)c(=O)c12  0.0634

1: Cc1c(Nc2c(F)ccc(NS(=O)(=O)CC3CC3)c2Cl)ccc2ncn(C)c(=O)c12
2: Cc1c(Nc2c(F)cnc(NS(=O)(=O)CC3CC3)c2Cl)ccc2ncn(C)c(=O)c12
Input line: Pick the one with the larger IC50: 1 vs 2 API: response body contains the label of the selected item.
Output line: 1
(1: 0.0661 µM, 2: 0.0417 µM)
